# TESTED_ON: human TRPM8 (Homo sapiens, UniProt Q7Z2W7)
# Sequence (Q7Z2W7 whole entry): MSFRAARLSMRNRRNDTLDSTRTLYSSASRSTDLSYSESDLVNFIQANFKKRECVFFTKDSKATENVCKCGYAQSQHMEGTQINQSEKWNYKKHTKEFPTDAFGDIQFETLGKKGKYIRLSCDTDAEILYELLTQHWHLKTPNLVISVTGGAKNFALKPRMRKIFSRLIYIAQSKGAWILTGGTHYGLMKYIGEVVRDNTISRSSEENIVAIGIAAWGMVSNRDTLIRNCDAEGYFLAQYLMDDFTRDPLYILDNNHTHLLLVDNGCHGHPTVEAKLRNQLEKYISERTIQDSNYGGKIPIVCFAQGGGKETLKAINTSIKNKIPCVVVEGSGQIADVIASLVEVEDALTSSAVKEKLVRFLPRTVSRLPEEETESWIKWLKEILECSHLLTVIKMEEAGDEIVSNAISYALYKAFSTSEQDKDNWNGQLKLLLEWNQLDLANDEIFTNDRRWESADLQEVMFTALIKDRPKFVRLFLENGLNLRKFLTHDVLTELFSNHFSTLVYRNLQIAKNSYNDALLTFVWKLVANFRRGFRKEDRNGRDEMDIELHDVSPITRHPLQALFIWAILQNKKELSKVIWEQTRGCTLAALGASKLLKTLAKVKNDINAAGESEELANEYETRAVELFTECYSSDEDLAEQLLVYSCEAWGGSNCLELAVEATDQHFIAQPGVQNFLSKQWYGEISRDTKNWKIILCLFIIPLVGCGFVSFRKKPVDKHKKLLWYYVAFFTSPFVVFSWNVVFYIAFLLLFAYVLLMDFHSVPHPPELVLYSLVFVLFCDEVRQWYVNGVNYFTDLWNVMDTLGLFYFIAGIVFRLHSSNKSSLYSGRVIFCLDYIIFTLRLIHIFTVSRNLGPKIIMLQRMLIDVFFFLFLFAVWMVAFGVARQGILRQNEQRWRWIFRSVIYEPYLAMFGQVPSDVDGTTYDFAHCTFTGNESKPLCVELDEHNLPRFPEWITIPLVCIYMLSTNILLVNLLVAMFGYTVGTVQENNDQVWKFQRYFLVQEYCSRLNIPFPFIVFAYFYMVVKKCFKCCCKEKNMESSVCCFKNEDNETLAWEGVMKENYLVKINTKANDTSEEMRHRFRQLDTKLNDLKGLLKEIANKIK
# ASSAY_SUMMARY: In Vitro human TRPM8 Functional Assay (intracellular Ca2+, Fluo4, FDSS, menthol activation)
# COND: HEK293 cells stably expressing human TRPM8; activation with L-(-)-Menthol; 11-point dose-response
# Method: In Vitro human TRPM8 Functional Assay The functional activity of compounds was determined by measuring changes in intracellular calcium concentration using a Ca^2+-sensitive fluorescent dye, Fluo4 (Molecular Probes). The changes in fluorescent signal were monitored by the cell imaging technology by Hamamatsu Photonics's Functional Drug Screening System (FDSS). […] IC50 values for compounds of the present invention were determined from 11-point dose-response studies. […]
Kindly state IC50 for each of the entries shown.

Recorded IC50 of N#Cc1ccc(S(=O)(=O)N(Cc2ccccc2)c2ncc(C(F)(F)F)cc2Cl)cc1 , please.
< 1 µM

Recorded IC50 of O=C(CN(c1cccc(C(F)(F)F)c1)S(=O)(=O)c1ccccc1)N1CCCCC1 , please.
10 to 30 µM

Recorded IC50 of O=C(O)c1cccc(S(=O)(=O)N(Cc2ccccc2)c2ccccc2)c1 , please.
10 to 30 µM

Recorded IC50 of O=C(O)c1cc(S(=O)(=O)N(Cc2ccccc2)c2ccccc2Cl)ccc1Cl , please.
1 to 10 µM

Recorded IC50 of O=C(O)c1ccc(S(=O)(=O)N(Cc2cccc(Cl)c2)c2ncc(C(F)(F)F)cc2Cl)cc1 , please.
< 1 µM

Recorded IC50 of O=C(O)c1ccc(S(=O)(=O)N(Cc2ccc(C(F)(F)F)cc2)c2ncc(Cl)cc2Cl)cc1 , please.
< 1 µM

Recorded IC50 of O=C(O)c1ccc(Cl)c(S(=O)(=O)N(Cc2ccccc2)c2ccccc2)c1 , please.
10 to 30 µM

Recorded IC50 of O=S(=O)(c1ccc(-c2nn[nH]n2)cc1)N(Cc1ccccc1)c1ncc(C(F)(F)F)cc1Cl , please.
< 1 µM

###

Kindly state pIC50 for each of the entries shown.
# TESTED_ON: human TRPM8 (Homo sapiens, UniProt Q7Z2W7)
# ASSAY_SUMMARY: In Vitro human TRPM8 Functional Assay (intracellular Ca2+, Fluo4, FDSS, menthol activation)
# COND: HEK293 cells stably expressing human TRPM8; activation with L-(-)-Menthol; 11-point dose-response
pIC50: −log10 of the molar value.

Recorded pIC50 of O=C(O)c1ccc(S(=O)(=O)N(Cc2ccc(-c3cccnc3)cc2)c2ncc(C(F)(F)F)cc2Cl)cc1 , please.
> 6.00

Recorded pIC50 of COc1cccc(C(C)N(c2cccc(OC)c2)S(=O)(=O)c2ccc(C)c(F)c2)c1 (centres unmarked) , please.
5.00 to 6.00

Recorded pIC50 of COc1ccc(OC)c(C(C)N(c2ccc(C)cc2)S(=O)(=O)c2ccc(C)cc2)c1 (centres unmarked) , please.
5.00 to 6.00

Recorded pIC50 of COc1cccc(N(C(C)c2cc(OC)ccc2OC)S(=O)(=O)c2ccccc2F)c1 (centres unmarked) , please.
5.00 to 6.00

Recorded pIC50 of Cc1cccc(N(C(C)c2ccccc2F)S(=O)(=O)c2cc(F)ccc2C)c1 (centres unmarked) , please.
5.00 to 6.00

Recorded pIC50 of O=C(CN(c1cccc(C(F)(F)F)c1)S(=O)(=O)c1ccccc1)NCc1ccccc1 , please.
4.52 to 5.00

Recorded pIC50 of CS(=O)(=O)NCc1ccc(S(=O)(=O)N(Cc2ccccc2)c2ncc(C(F)(F)F)cc2Cl)cc1 , please.
> 6.00

Recorded pIC50 of CC1(c2ccc(CN(c3ncc(Cl)cc3Cl)S(=O)(=O)c3ccc(C(=O)O)cc3)cc2)CC1 , please.
> 6.00
